Tested on: UO-31 renal
Protocol Notes: NCI-60 one-dose screen, 48 h (100 = growth as untreated, 0 = no growth, -100 = all killed)
Condition Description: 10 µM unless noted
This is part of a sample that, as a whole, favours compounds with a hit. Of some 83,000 tested, about 20% had one in any assay.
Label scheme for growth: lower than 80% is Criterion not met, 80% and above is Criterion met.

Please review the entries below; each comes with its answer.
Compound | Cat
CCn1c(-c2nonc2Nc2ccc(OC)cc2)nc2ccccc21 | Criterion met
CCn1c(Cc2ccccc2Nc2c(Cl)cccc2Cl)nnc1SCC(=O)NN1C(=O)/C(=C/c2cccc(OC)c2OC)SC1=S | Criterion not met
NCCOc1ncccc1/C=C1\c2ccccc2-c2ccc([N+](=O)[O-])cc21 | Criterion not met
O=C(NC1C(O)OC(CO)C(O)C1O)NS(=O)(=O)c1ccc(Cl)cc1 (configuration not stated) | Criterion not met
COc1cc(C(C)n2cc(-c3ccccc3)nn2)ccc1OC1CCCC1 (configuration not stated) | Criterion not met
COc1ccc(C2C3=C(COC3=O)N(CCO)c3cc4c(cc32)CCC4)cc1 (configuration not stated) | Criterion not met

Inquiry: Given the entry Cc1cc2c(c(C)c1Cl)C(=O)/C(=C/c1cccc([N+](=O)[O-])c1)O2 , answer whether its growth meets or surpasses 80%.
Reply text: Criterion met

----------
Test system: OVCAR-5 ovarian
Protocol Notes: NCI-60 one-dose screen, 48 h (100 = growth as untreated, 0 = no growth, -100 = all killed)
Condition Description: 10 µM unless noted
About 83,000 compounds went through this panel and 20% of them were active in at least one assay; those are over-represented in the sample as a whole.
Labels assigned by growth range: low class: < 50%; middle class: ≥ 50% and < 90%; high class: ≥ 90%

Inquiry: Please let me know in which category the item COc1ccc(N)c(-c2cc3c(c4c2[nH]c2ccc(OC)cc24)CCCC3)c1 belongs.
Reply text: high class

Inquiry: Please let me know in which category the item CCOc1c(Br)cc(C2C(C(=O)OC)=CN(C)C=C2C(=O)OC)cc1OC belongs.
Reply text: middle class

----------
System: HCT-116 colon
Protocol Notes: NCI-60 one-dose screen, 48 h
Condition Description: 10 µM unless noted
This is part of a sample that, as a whole, favours compounds with a hit. Of some 83,000 tested, about 20% had one in any assay. Calls of active or inactive are those of the source. The calls were made as follows: active = growth percent below 10; inactive = the rest.
Classes to choose from: 1 (active), 0 (inactive)

Inquiry: Field: outcome | Entry: Cc1ccc2cccc(Oc3ccc(Nc4ncnc5onc(-c6ccccc6)c45)cc3)c2n1
Reply text: 0

Inquiry: Field: outcome | Entry: CCN(CC)CCNC(=O)C(Cl)=C1C(Cl)=C(Cl)C(Cl)=C1Cl
Reply text: 0

Inquiry: Field: outcome | Entry: CCCCc1c(CCC)c(=N)c2ccccc2n1C
Reply text: 0

----------
# growth per entry
System: SF-268 CNS
Protocol Notes: NCI-60 one-dose screen, 48 h (100 = growth as untreated, 0 = no growth, -100 = all killed)
Condition Description: 10 µM unless noted
This is part of a sample that, as a whole, favours compounds with a hit. Of some 83,000 tested, about 20% had one in any assay.
Record the value in %, omitting the unit from your answer.

Solved cases (2 shown):
Compound | growth / %
Cc1cccc2c(=O)c3c(sc12)c(NCCCNCCO)nc1ccccc13 | 52.1
CCN1C(=O)N(CC)C2Nn3c(s/c(=C4\C(=O)N(C(C)C)c5ccccc54)c3=O)=NC21 (stereo not given) | 51.8

Inquiry: Could you tell me which growth is on file for COc1cc(C2C3=C(COC3=O)N(CCO)c3cc4c(cc32)OCCO4)cc(OC)c1O (stereo not given) ?
Reply text: 46

Inquiry: Could you tell me which growth is on file for O=C(Nc1ccsc1C(=O)NC1CCCCC1)c1ccc(F)cc1 ?
Reply text: 104

Inquiry: Could you tell me which growth is on file for O=S(=O)(c1ccccc1)n1cc2c(c1-c1ccccc1)CCc1sc(Nc3ccccc3)nc1-2 ?
Reply text: 86.7

----------
Test system: SF-295 CNS
Protocol Notes: NCI-60 one-dose screen, 48 h
Condition Description: 10 µM unless noted
The panel holds about 83,000 compounds, 20% with a hit somewhere; the sample as a whole holds those more often. Calls of active or inactive are those of the source. How the source made its calls: active means growth percent below 10; inactive means the rest.
Classes to choose from: T for active, F for inactive

Please review the entries below; each comes with its answer.
Molecule | Assayed Target | Cat
CC1CCCCN1CCCNC(=O)c1ccc2c(c1)sc1nc(-c3ccc(F)cc3)cn12 (stereo not drawn) | SF-295 CNS | F
COc1ccc(-c2nnc(COc3ccc(C(=O)/C=C/c4ccco4)cc3)o2)cc1 | SF-295 CNS | T
O=c1cc(-c2ccccc2)oc2cc(OCc3cn(Cc4ccc(F)cc4)nn3)cc(OCc3cn(Cc4ccc(F)cc4)nn3)c12 | SF-295 CNS | F
Clc1ncccc1Nc1ccc2nnc(-c3ccncc3)n2n1 | SF-295 CNS | F
CNC(=O)c1cc(Oc2ccc(CC(=O)Nc3cc(C(C)(C)C)cn3C)cc2)ccn1 | SF-295 CNS | F

Inquiry: Field: outcome | Entry: Oc1c(CN2CCN(c3ccccc3F)CC2)cc(Br)c2cccnc12
Reply text: T

Inquiry: Field: outcome | Entry: CCN1C(=O)N(c2ccccc2)C2Nn3c(s/c(=C4\C(=O)N(C(C)C)c5ccccc54)c3=O)=NC21 (stereo not drawn)
Reply text: F

Inquiry: Field: outcome | Entry: O=c1oc2ccc(Br)cc2c(=O)n1-c1ccc(I)cc1F
Reply text: T

----------
Test system: HCC-2998 colon
Protocol Notes: NCI-60 one-dose screen, 48 h (100 = growth as untreated, 0 = no growth, -100 = all killed)
Condition Description: 10 µM unless noted
About 83,000 compounds went through this panel and 20% of them were active in at least one assay; those are over-represented in the sample as a whole.
# growth per entry
Record the value in %, omitting the unit from your answer.

Solved cases (3 shown):
Molecule | Quantity | Units Of Measure | Observed
O=C(c1nc2ccccc2[nH]1)C1C(c2cccc([N+](=O)[O-])c2)C2CC3CCCCC3N2[C@@]12C(=O)Nc1cc(Cl)ccc12 (some centres undefined) | growth | % | 23.9
COc1ccc(Nc2cc(C)nc(NCc3ccccc3)n2)cc1 | growth | % | 21.2
CC1=NCC2NC(=O)NC(C)=C12 (centres undefined) | growth | % | 113

Kindly consider the entry below.
Inquiry: Could you tell me which growth is on file for Cc1ccc(Nc2nc(N)c3ccccc3n2)cc1Cl ?
Reply text: 51.6

----------
System: OVCAR-5 ovarian
Protocol Notes: NCI-60 one-dose screen, 48 h (100 = growth as untreated, 0 = no growth, -100 = all killed)
Condition Description: 10 µM unless noted
The panel holds about 83,000 compounds, 20% with a hit somewhere; the sample as a whole holds those more often.
# growth per entry
Record the value in %, omitting the unit from your answer.

Compound | Assayed Target | growth (%)
N#C/C(=C1\SC(=O)CN1c1ccccc1)c1nc2ccccc2s1 | OVCAR-5 ovarian | 103
CC(=O)O[C@@H]1/C=C/C(=O)N[C@@H](C)CCC/C=C/[C@@H]2CCC[C@H]21 | OVCAR-5 ovarian | 87.8
c1ccc(CNc2nc(Nc3ccccc3)nc3ccccc23)cc1 | OVCAR-5 ovarian | 72.8
COc1ccc(CCN2C(=O)CCSC2=S)cc1 | OVCAR-5 ovarian | 98.1
COc1ccc(C2C3=C(COC3=O)N(CCO)c3cc4c(cc32)CCC4)cc1OC (stereo not drawn) | OVCAR-5 ovarian | 57.3

Inquiry: Could you tell me which growth is on file for O=C1NC(=O)C(=Cc2cn(Cc3cn(Cc4ccc(Cl)cc4Cl)nn3)c3ccccc23)C(=O)N1 ?
Reply text: 50.8

Inquiry: Could you tell me which growth is on file for O=S(=O)(Nc1ncccn1)c1ccc(NC2Nc3nc4ccccc4nc3S2)cc1 (stereo not drawn) ?
Reply text: 96.4

Inquiry: Could you tell me which growth is on file for O=c1oc2ccc(I)cc2c(=O)n1-c1ccc(F)cc1F ?
Reply text: 40

Inquiry: Could you tell me which growth is on file for CCOc1ccc2nc(C)cc(Nc3ccc(Br)cc3)c2c1 ?
Reply text: 97.7

Inquiry: Could you tell me which growth is on file for O=C(Nc1ccc(I)cc1F)c1cc(Cl)ccc1O ?
Reply text: 26.1

Inquiry: Could you tell me which growth is on file for CCC1=C[C@@H]2CN(C1)Cc1c([nH]c3ccccc13)[C@@](C(=O)OC)(c1cc3c(cc1OC)N(C)[C@H]1[C@@](O)(C(=O)OC)[C@H](OC(C)=O)[C@]4(CC)[C@@H]5C[C@@H]5CN5CC[C@]31[C@@H]54)C2 ?
Reply text: 44.6

Inquiry: Could you tell me which growth is on file for COc1cccc(C(=O)NC(c2ccc(C)cc2)c2cc(Cl)c3cccnc3c2O)c1 (stereo not drawn) ?
Reply text: 38.6

Inquiry: Could you tell me which growth is on file for Fc1cccc(COc2ccc(Nc3ncnc4onc(-c5ccccc5)c34)cc2)c1 ?
Reply text: 9.86

Inquiry: Could you tell me which growth is on file for Cc1ccc(NC2=CC(=O)C(=O)c3ccccc32)c(C)c1 ?
Reply text: 80.3

Inquiry: Could you tell me which growth is on file for CCCSC1=NC2C(N(CC)C(=O)N2CC)N1/N=C/C=C/c1ccccc1[N+](=O)[O-] (stereo not drawn) ?
Reply text: 48

Inquiry: Could you tell me which growth is on file for O=C1Nc2ccccc2/C1=C/c1ccc[nH]1 ?
Reply text: 78.7

Inquiry: Could you tell me which growth is on file for COc1cc(-c2c3c(c(Br)n2Cc2ccccc2)-c2nc(N)sc2CC3)cc(OC)c1OC ?
Reply text: 107

Inquiry: Could you tell me which growth is on file for O=C(Nc1ccc(Br)cc1F)c1cc(I)ccc1O ?
Reply text: 24.2

Inquiry: Could you tell me which growth is on file for COc1ccc(/C=C2\NC(=O)NC2=O)cc1O ?
Reply text: 108
